We begin with a simple list: items and their reported EC50.
Assay: cells
Format: functional, cell-based
The source made the active and inactive calls.

The cases that follow already have their EC50 on record.
MOLECULE	EC50
Cc1nc2cc(-c3ccccc3)sc2c(=O)n1N	> 350 µM (not active)
CNc1c2c(nn1C)CCCC2	> 350 µM (not active)
COc1ccc(N/N=C/c2c(C(=O)O)ccc3ccccc23)cc1	9.66 µM (active)
O=C1C(=O)c2ccccc2C(O)=C1c1cccc([N+](=O)[O-])c1	> 350 µM (not active)

Query: Request the reported EC50 associated with O=C(O)c1ccc2cccc(O)c2n1
Reply: > 350 µM (not active)

---

Entries and their measured IC50 follow.
Target: Rac GTPase-activating protein 1 (Homo sapiens, UniProt Q9H0H5)
Sequence (Q9H0H5 whole entry): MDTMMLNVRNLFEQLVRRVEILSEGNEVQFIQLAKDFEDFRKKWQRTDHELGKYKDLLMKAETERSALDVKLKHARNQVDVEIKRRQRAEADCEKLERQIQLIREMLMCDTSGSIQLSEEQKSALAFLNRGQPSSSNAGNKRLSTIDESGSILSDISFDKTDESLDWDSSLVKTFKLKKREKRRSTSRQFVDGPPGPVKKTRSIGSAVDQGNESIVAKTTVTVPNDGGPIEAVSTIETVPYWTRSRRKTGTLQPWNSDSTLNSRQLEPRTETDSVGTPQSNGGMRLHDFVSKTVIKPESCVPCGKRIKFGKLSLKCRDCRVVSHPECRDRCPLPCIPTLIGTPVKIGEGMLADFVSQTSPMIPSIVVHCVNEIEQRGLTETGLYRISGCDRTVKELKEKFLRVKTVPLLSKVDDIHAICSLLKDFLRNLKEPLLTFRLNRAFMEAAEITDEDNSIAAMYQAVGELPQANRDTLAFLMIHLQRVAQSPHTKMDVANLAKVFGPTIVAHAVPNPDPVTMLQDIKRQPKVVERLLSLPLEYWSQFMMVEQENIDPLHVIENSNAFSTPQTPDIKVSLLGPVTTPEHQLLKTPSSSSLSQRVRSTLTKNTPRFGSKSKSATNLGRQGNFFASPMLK
Assay: MgcRacGAP GTPase-activating activity inhibitors, confirmation, biochemical, ADP Hunter fluorescence, primary and confirmatory (AID 624330)
Assay type: functional
Active and inactive are the calls of the source.

Solved entries (count: 10):
COMPOUND	IC50
Nc1cc([N+](=O)[O-])ccc1Nc1ccc(O)cc1	38.2 µM (active)
CCn1c(C)nc2cc(C(=O)N/N=C/c3ccc(O)cc3)ccc21	66.7 µM (active)
COc1cc(/C=N/NC(=O)CCNC(=O)c2ccccc2Cl)ccc1O	29 µM (active)
Cc1cccc2sc(NNC(=O)c3cc(=O)c4ccccc4o3)nc12	94 µM (active)
Cn1cccc1/C=C1\SC(Nc2ccc(O)cc2)=NC1=O	94.8 µM (active)
Nc1n[nH]c(N)c1N=Nc1ccc2c(c1)OCO2	30.1 µM (active)
CC(=O)c1c(C)c(C)c2n1CCn1c(C)ccc1-2	29 µM (active)
COC(=O)c1c(NC(=O)CCNCc2ccco2)sc2c1CCC2	138 µM (active)
O=C(O)CCN1C(=O)/C(=C/c2ccc(-c3nc4ccccc4s3)o2)SC1=S	30.6 µM (active)
C=CCNC(=O)CN1CCN(C(c2ccccc2)c2ccccc2)CC1	168 µM (active)

Query: Query the reported IC50 for Rac GTPase-activating protein 1 (Homo sapiens, UniProt Q9H0H5); item: O=C(CC(=O)Nc1ccc(Cl)c(Cl)c1)N/N=C/c1ccc(O)cc1
Reply: 74 µM (active)

Query: Could you share what IC50 was measured for CCOc1cc(C=NNC(=O)c2cccc(S(=O)(=O)N3CCCC3)c2)ccc1O , tested on Rac GTPase-activating protein 1 (Homo sapiens, UniProt Q9H0H5)?
Reply: 32.3 µM (active)

Query: Look up IC50 with Rac GTPase-activating protein 1 (Homo sapiens, UniProt Q9H0H5) for this compound: C/C(=N/Nc1ccc(C(=O)O)cc1)c1ccc2c(c1)Nc1ccccc1S2
Reply: 50.6 µM (active)

Query: Which measured IC50 belongs to C=CCc1cc(OC)ccc1OCCN1CC(C)OC(C)C1 (centres undefined) , tested on Rac GTPase-activating protein 1 (Homo sapiens, UniProt Q9H0H5)?
Reply: 70.5 µM (active)

---

Biological target: Sentrin-specific protease 6 (Homo sapiens, UniProt Q9GZR1);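 note: Luminescence-based dose-response confirmatory assay of SENP6 inhibition, following up an ultra-high-throughput screen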
Sequence (Q9GZR1 whole entry): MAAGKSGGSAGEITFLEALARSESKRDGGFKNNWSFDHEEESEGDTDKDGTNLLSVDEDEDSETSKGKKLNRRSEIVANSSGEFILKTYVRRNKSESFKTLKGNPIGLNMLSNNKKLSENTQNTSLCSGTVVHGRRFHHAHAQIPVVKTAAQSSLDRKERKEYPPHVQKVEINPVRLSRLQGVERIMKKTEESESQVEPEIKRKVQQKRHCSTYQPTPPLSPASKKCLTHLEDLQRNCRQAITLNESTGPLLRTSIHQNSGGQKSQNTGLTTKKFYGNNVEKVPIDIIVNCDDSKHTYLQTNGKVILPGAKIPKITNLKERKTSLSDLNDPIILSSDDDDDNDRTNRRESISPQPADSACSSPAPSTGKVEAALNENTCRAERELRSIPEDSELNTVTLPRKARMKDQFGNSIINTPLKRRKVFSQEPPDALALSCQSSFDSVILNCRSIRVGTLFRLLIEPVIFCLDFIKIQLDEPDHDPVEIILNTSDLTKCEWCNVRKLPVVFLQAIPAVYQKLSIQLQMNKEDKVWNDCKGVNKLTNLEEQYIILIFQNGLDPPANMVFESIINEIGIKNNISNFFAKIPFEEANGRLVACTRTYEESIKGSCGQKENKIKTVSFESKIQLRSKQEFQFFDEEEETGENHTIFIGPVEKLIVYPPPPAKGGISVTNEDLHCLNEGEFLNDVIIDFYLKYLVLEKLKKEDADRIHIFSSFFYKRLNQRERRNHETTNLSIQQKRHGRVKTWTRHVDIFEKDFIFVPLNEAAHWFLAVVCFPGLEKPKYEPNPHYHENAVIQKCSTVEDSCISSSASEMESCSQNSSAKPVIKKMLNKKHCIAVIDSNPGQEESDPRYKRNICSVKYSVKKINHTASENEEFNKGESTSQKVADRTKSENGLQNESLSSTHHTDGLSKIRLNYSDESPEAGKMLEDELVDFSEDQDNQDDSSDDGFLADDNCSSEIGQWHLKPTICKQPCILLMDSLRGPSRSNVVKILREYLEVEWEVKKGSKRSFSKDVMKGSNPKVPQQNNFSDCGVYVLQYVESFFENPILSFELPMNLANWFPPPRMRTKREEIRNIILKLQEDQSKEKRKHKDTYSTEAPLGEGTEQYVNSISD
Format: functional
The source made the active and inactive calls.
Would you mind answering with one of these outcomes? yes (1) = active, no (0) = inactive

Sample answers from the record:
MOLECULE	GROUP
COc1ccccc1NC(=O)CCSc1ccc(C)cc1	yes (1)
O=C(Nc1nc2ccccc2s1)c1ccc(Cl)s1	no (0)
COc1cccc(NC(=O)C(S)=NC2CCCCC2)c1	yes (1)

Query: Record request — test call for COC(=O)c1ccc(N=Nc2ccccc2)cc1
Reply: yes (1)
